The origin of these recorded values is patent US12522623B2.

Target: STAT3 (Homo sapiens, UniProt P40763)
Construct: endogenous in cells; host or cells: MOLM-16 (acute leukemia cells)
Sequence (P40763 whole entry): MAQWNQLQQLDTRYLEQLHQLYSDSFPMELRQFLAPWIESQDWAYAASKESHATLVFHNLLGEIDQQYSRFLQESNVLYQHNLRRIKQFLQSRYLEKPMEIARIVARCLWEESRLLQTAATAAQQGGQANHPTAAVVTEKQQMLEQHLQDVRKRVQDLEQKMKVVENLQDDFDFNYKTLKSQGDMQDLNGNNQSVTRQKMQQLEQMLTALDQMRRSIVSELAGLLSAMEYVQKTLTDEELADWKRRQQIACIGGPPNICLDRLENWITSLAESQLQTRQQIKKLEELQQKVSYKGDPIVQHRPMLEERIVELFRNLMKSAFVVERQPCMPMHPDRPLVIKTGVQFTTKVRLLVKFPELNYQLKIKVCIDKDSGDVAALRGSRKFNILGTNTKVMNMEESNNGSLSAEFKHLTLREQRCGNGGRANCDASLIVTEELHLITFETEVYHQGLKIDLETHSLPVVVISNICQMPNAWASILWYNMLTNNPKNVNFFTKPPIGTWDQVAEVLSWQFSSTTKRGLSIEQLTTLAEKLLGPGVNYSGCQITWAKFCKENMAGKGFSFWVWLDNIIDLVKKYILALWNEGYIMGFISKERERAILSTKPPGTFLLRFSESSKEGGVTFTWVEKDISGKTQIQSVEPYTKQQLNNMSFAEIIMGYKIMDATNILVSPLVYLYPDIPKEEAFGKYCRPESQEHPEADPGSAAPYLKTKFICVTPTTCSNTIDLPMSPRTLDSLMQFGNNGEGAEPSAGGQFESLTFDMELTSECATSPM
Assay: Fluorescent immunoblotting of STAT3 protein in MOLM-16 cells (estimated DC50)
Format: cell-based
Conditions: MOLM-16, 4 h
experimental endpoint: DC50 (nM)
One number for each entry, in nM.

compound	assayed system	DC50 (nM)
NC(=O)CC[C@H](NC(=O)[C@@H]1CC[C@@H]2CCN(C(=O)CCCCCC#Cc3cccc4c3CN(C3CCC(=O)NC3=O)C4=O)C[C@H](NC(=O)c3cc4cc(C(F)(F)P(=O)(O)O)ccc4s3)C(=O)N21)c1nc(-c2ccc(F)c(F)c2)cs1 (some centres unmarked) [Cpd. No. 11]	STAT3 (Homo sapiens, UniProt P40763)	100
NC(=O)CC[C@H](NC(=O)[C@@H]1CC[C@@H]2CCN(C(=O)CCCCCC#Cc3cccc4c3CN(C3CCC(=O)NC3=O)C4=O)C[C@H](NC(=O)c3cc4cc(C(F)(F)P(=O)(O)O)ccc4s3)C(=O)N21)c1ncc(Cc2ccccc2)s1 (some centres unmarked) [Cpd. No. 5]	STAT3 (Homo sapiens, UniProt P40763)	100
NC(=O)CC[C@H](NC(=O)[C@@H]1CC[C@@H]2CCN(C(=O)CCCCCC#Cc3cccc4c3CN(C3CCC(=O)NC3=O)C4=O)C[C@H](NC(=O)c3cc4cc(C(F)(F)P(=O)(O)O)ccc4s3)C(=O)N21)c1nc(-c2ccc(F)cc2)cs1 (some centres unmarked) [Cpd. No. 12]	STAT3 (Homo sapiens, UniProt P40763)	100
NC(=O)CC[C@H](NC(=O)[C@@H]1CC[C@@H]2CCN(C(=O)CCCCCC#Cc3cccc4c3CN(C3CCC(=O)NC3=O)C4=O)C[C@H](NC(=O)c3cc4cc(C(F)(F)P(=O)(O)O)ccc4s3)C(=O)N21)c1ncc(-c2ccc(F)cc2)s1 (some centres unmarked) [Cpd. No. 9]	STAT3 (Homo sapiens, UniProt P40763)	50
NC(=O)CC[C@H](NC(=O)[C@@H]1CC[C@@H]2CCN(C(=O)CCCCCC#Cc3cccc4c3CN(C3CCC(=O)NC3=O)C4=O)C[C@H](NC(=O)c3cc4cc(C(F)(F)P(=O)(O)O)ccc4s3)C(=O)N21)c1ncc(-c2ccc(Cl)cc2)s1 (some centres unmarked) [Cpd. No. 7]	STAT3 (Homo sapiens, UniProt P40763)	50

// below: DC50 requested for another compound
Reported STAT3 (Homo sapiens, UniProt P40763) DC50 for item NC(=O)CC[C@H](NC(=O)[C@@H]1CC[C@@H]2CCN(C(=O)CCCCCC#Cc3cccc4c3CN(C3CCC(=O)NC3=O)C4=O)C[C@H](NC(=O)c3cc4cc(C(F)(F)P(=O)(O)O)ccc4s3)C(=O)N21)c1nc(-c2ccccc2)cs1 (some centres unmarked) [Cpd. No. 4] was 200
